Recorded IC50, one value per entry.
Target: RET tyrosine kinase (Homo sapiens (Human))
Sequence (P07949 29-1114): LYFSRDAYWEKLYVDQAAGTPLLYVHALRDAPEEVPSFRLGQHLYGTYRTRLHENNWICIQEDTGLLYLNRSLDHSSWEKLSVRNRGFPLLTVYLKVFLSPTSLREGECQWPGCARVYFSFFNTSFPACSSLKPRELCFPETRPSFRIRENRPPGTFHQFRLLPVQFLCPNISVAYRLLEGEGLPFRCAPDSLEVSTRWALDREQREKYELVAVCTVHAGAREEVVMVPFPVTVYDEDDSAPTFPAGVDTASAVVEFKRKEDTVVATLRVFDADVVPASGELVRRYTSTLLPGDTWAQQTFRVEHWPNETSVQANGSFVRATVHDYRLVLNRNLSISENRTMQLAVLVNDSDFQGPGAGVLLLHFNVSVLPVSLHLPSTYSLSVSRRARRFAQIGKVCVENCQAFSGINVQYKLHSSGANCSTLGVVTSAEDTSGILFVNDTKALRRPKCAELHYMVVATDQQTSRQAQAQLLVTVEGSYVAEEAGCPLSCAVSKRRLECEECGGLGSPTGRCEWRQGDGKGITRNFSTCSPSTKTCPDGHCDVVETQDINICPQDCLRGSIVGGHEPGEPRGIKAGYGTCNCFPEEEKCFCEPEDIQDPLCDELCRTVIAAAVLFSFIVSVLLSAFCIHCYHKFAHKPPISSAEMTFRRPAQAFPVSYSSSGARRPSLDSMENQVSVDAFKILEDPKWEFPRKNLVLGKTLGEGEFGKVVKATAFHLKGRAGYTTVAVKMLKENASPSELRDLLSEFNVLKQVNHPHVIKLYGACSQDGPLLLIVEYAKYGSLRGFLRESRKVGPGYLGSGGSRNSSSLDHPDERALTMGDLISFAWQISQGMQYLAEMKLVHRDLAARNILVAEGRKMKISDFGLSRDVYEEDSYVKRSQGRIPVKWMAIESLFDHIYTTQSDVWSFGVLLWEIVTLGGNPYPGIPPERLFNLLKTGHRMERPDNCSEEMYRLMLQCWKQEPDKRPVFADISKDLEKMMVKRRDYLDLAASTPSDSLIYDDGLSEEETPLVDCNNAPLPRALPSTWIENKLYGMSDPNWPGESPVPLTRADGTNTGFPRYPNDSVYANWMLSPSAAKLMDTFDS
Assay: Assay of small molecular compounds for inhibiting the activity of RET kinase (LANCE TR-FRET)
Conditions: read-out: RET IC50

Prompt: Query: IC50; subject: O=C(Nc1ccc(Oc2ccnc3cc(OC4CCOC4)c4c(c23)OCCO4)cc1Cl)NC1CC1 (stereo not shown) [Example 66]
Response: < 50 nM

Prompt: And then O=C(Nc1ccc(Oc2ccnc3cc(OCCCN4CCCCC4)c4c(c23)OCCO4)cc1Cl)NC1CC1 [Example 54] , what is it?
Response: < 50 nM

Prompt: And then COCCOc1cc2nccc(Oc3ccc(NC(=O)NC4CC4)c(F)c3)c2c2c1OCCO2 [Example 91] , what is it?
Response: < 50 nM

Prompt: And then COc1cc2nccc(Oc3ccc(NC(=O)NC4CCC4)c(Cl)c3)c2c2c1OCCO2 [Example 68] , what is it?
Response: < 50 nM
